Data provenance is patent US11352350B2.

- Test system: OCI-LY10
- protocol details: CTG Cell Viability Assay - OCI-LY10
- Type: cell-based, human
- condition label: OCI-LY10, 4 days; read-out: CTG Cell Viability Assay - OCI-LY10: Average external-IC50
Overview of reported IC50 across a group of molecules:

molecule	measurement target	IC50
Cn1c(=O)n([C@H]2CCC(=O)NC2=O)c2cccc(CCCOC3CCN(CC4CCC(n5cc(NC(=O)c6cnn7ccc(N8CCOCC8)nc67)c(C(F)F)n5)CC4)CC3)c21 (stereo partly drawn)	OCI-LY10	> 1000 nM

Enter measured IC50, system OCI-LY10, for the molecule shown: CN(CCCOCCCNc1cccc2c1C(=O)N(C1CCC(=O)NC1=O)C2=O)Cc1ccc(-n2cc(NC(=O)c3cnn4ccc(N5C[C@H]6C[C@@H]5CO6)nc34)c(C(F)F)n2)cc1 (stereo partly drawn) > 1000 nM

Enter measured IC50, system OCI-LY10, for the molecule shown: `COc1cc(C(=O)NCCCCN(C)C[C@H]2CC[C@H](n3cc(NC(=O)c4coc(-c5ccnc(NCC6CC6)c5)n4)c(C(F)F)n3)CC2)ccc1NC(=O)[C@@H]1N[C@@H](CC(C)(C)C)[C@](C#N)(c2ccc(Cl)cc2F)[C@H]1c1cccc(Cl)c1F` > 1000 nM

Enter measured IC50, system OCI-LY10, for the molecule shown: CN(CCCOCCCc1cccc2c1n(C)c(=O)n2C1CCC(=O)NC1=O)C(=O)[C@H]1CC[C@H](n2cc(NC(=O)c3coc(-c4ccnc(NCC(F)(F)F)c4)n3)c(C(N)=O)n2)CC1 (stereo partly drawn) [I-28] < 50 nM

Enter measured IC50, system OCI-LY10, for the molecule shown: CN(CCCOCCCc1cccc2c1n(C)c(=O)n2C1CCC(=O)NC1=O)C(=O)[C@H]1CC[C@H](n2cc(NC(=O)c3coc(-c4ccnc(NCC(F)(F)F)c4)n3)c(C(N)=O)n2)CC1 (stereo partly drawn) [I-29] > 1000 nM

Enter measured IC50, system OCI-LY10, for the molecule shown: `COc1cc(C(=O)NCCCCCCN(C)C[C@H]2CC[C@H](n3cc(NC(=O)c4coc(-c5ccnc(NCC6CC6)c5)n4)c(C(F)F)n3)CC2)ccc1NC(=O)[C@@H]1N[C@@H](CC(C)(C)C)[C@](C#N)(c2ccc(Cl)cc2F)[C@H]1c1cccc(Cl)c1F` > 1000 nM

----------
- measurement target: IRAK4 (Homo sapiens (Human))
- protocol details: IRAK4 MSD degradation in OCI-LY10
- Type: cell-based
- condition label: OCI-LY10, 4 hrs; read-out: IRAK4 MSD degradation in OCI-LY10 at 4 hrs: DC50
Overview of reported DC50 across a group of compounds:

compound	DC50
Cn1c(=O)n(C2CCC(=O)NC2=O)c2cccc(CCCOCCCC(CNC[C@H]3CC[C@H](n4cc(NC(=O)c5cnn6ccc(N7C[C@H]8C[C@@H]7CO8)nc56)c(C(F)F)n4)CC3)C(=O)O)c21 (stereo partly shown)	100 to 1000 nM
Cn1c(=O)n(C2CCC(=O)NC2=O)c2cccc(CCCC3CCN(C[C@H]4CC[C@H](C5N=C(NC(=O)c6cnn7ccc(N8C[C@H]9CC[C@@H](C8)O9)nc67)C(C(F)F)=N5)CC4)CC3)c21 (stereo partly shown)	< 10 nM
C[C@@H](C#Cc1cccc2c1n(C)c(=O)n2C1CCC(=O)NC1=O)OC1CCN(C[C@H]2CC[C@H](n3cc(NC(=O)c4cnn5ccc(N6C[C@H]7C[C@@H]6CO7)nc45)c(C(F)F)n3)CC2)CC1 (stereo partly shown)	10 to 100 nM
O=C1CCC(N2C(=O)c3ccc(NCC4CC5(CCN(C[C@H]6CC[C@H](n7cc(NC(=O)c8cnn9ccc(N%10C[C@H]%11C[C@@H]%10CO%11)nc89)c(C(F)F)n7)CC6)CC5)C4)cc3C2=O)C(=O)N1 (stereo partly shown)	10 to 100 nM
C[C@H]1CN(c2ccn3ncc(C(=O)NC4=NC([C@H]5CC[C@H](CN6CCC(CC#Cc7cccc8c7n(C)c(=O)n8C7CCC(=O)NC7=O)CC6)CC5)N=C4C(F)F)c3n2)C[C@H](C)O1 (stereo partly shown)	10 to 100 nM

Quote DC50 reported for Cn1c(=O)n(C2CCC(=O)NC2=O)c2cccc(CCCN3CCOC4(CCN(C[C@H]5CC[C@H](n6cc(NC(=O)c7cnn8ccc(N9C[C@H]%10C[C@@H]9CO%10)nc78)c(C(F)F)n6)CC5)CC4)C3)c21 (stereo partly shown) please. 10 to 100 nM

Quote DC50 reported for Cn1c(=O)n(C2CCC(=O)NC2=O)c2cccc(CCCCN3CCN(C(=O)[C@H]4CC[C@H](n5cc(NC(=O)c6cnn7ccc(N8C[C@H]9C[C@@H]8CO9)nc67)c(C(F)F)n5)CC4)CC3)c21 (stereo partly shown) please. < 10 nM

Quote DC50 reported for Cn1c(=O)n(C2CCC(=O)NC2=O)c2cccc(CC3CC4(CCN(Cc5ccc(-n6cc(NC(=O)c7cnn8ccc(N9C[C@H]%10C[C@@H]9CO%10)nc78)c(C(F)F)n6)cc5)CC4)C3)c21 (stereo partly shown) please. 100 to 1000 nM

Quote DC50 reported for O=C1CCC(N2C(=O)c3cccc(NCC4CCN(Cc5ccc(-n6cc(NC(=O)c7cnn8ccc(N9C[C@H]%10C[C@@H]9CO%10)nc78)c(C(F)F)n6)cc5)CC4)c3C2=O)C(=O)N1 (stereo partly shown) please. 100 to 1000 nM

Quote DC50 reported for Cn1c(=O)n(C2CCC(=O)NC2=O)c2cccc(CC[C@H]3CN(C[C@H]4CC[C@H](n5cc(NC(=O)c6cnn7ccc(N8CCCOCC8)nc67)c(C(F)F)n5)CC4)CCO3)c21 (stereo partly shown) please. 10 to 100 nM

----------
- measurement target: IRAK4 (Homo sapiens (Human), UniProt Q9NWZ3)
- Sequence (Q9NWZ3 whole entry): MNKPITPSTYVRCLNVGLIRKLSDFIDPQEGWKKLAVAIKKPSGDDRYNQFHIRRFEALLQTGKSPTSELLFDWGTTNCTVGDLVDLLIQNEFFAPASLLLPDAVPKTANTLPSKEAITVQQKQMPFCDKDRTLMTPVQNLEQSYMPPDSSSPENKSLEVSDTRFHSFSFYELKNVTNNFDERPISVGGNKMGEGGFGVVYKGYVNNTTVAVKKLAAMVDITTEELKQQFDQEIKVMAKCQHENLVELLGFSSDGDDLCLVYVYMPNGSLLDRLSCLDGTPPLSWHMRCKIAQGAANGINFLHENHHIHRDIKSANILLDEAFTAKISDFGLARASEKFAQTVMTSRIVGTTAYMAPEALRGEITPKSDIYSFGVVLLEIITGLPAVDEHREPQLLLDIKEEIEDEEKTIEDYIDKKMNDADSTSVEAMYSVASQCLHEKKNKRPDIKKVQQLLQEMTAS
- protocol details: IRAK4 degradation in human whole blood lymphocyte - flow cytometry
- Type: cell-based
- condition label: read-out: IRAK4 degradation in whole blood lymphocyte-Flow cytometry: Average external Abs IC50
readout: DC50

Quote DC50 reported for Cn1c(=O)n(C2CCC(=O)NC2=O)c2ccc(CCOCCN3CCO[C@@H](CNC[C@H]4CC[C@H](n5cc(NC(=O)c6cnn7ccc(N8CCNCC8)nc67)c(C(F)F)n5)CC4)C3)cc21 (some centres unmarked) please. < 50 nM

Quote DC50 reported for Cn1c(=O)n(C2CCC(=O)NC2=O)c2ccc(CCCOCCNC[C@H]3CC[C@H](n4cc(NC(=O)c5coc(-c6ccnc(NCC(F)(F)F)c6)n5)c(C(N)=O)n4)CC3)cc21 (some centres unmarked) please. < 50 nM

Quote DC50 reported for O=C1CCC(N2C[C@H](c3ccc(C#CCN4CCO[C@@H](CNC[C@H]5CC[C@H](n6cc(NC(=O)c7coc(-c8ccnc(NCC9CC9)c8)n7)c(C(F)F)n6)CC5)C4)cc3)OC2=O)C(=O)N1 (some centres unmarked) please. 100 to 500 nM

Quote DC50 reported for CN(CCOCCOCCCc1cccc2c1n(C)c(=O)n2C1CCC(=O)NC1=O)C(=O)[C@H]1CC[C@H](n2cc(NC(=O)c3coc(-c4ccnc(NCC5CC5)c4)n3)c(C(F)F)n2)CC1 (some centres unmarked) please. 50 to 100 nM

Quote DC50 reported for O=C1CCC(n2c3ccccc3c3c(CCCOCCOCCNC[C@H]4CC[C@H](n5cc(NC(=O)c6coc(-c7ccnc(NCC8CC8)c7)n6)c(C(F)F)n5)CC4)ccnc32)C(=O)N1 (some centres unmarked) please. 500 to 1000 nM

----------
Overview of reported DC50 across a group of molecules:
- measurement target: IRAK4 (Homo sapiens (Human))
- protocol details: hPBMC IRAK4 degradation flow assay
- Format: cell-based
- condition label: hPBMC monocyte, 20 hrs; read-out: IRAK4 degradation in hPBMC monocyte: DC50

Reference set (4 entries):
molecule	DC50
Cn1c(=O)n(C2CCC(=O)NC2=O)c2cccc(CCCCN3CCN(C(=O)[C@H]4CC[C@H](n5cc(NC(=O)c6cnn7ccc(N8C[C@H]9C[C@@H]8CO9)nc67)c(C(F)F)n5)CC4)CC3)c21 (some centres unmarked)	< 10 nM
C[C@@H]1CN(c2ccn3ncc(C(=O)Nc4cn([C@H]5CC[C@H](C(=O)N6CCC7(CC6)CN(CCCc6cccc8c6n(C)c(=O)n8C6CCC(=O)NC6=O)C7)CC5)nc4C(F)F)c3n2)C[C@H](C)O1 (some centres unmarked)	< 10 nM
Cn1c(=O)n(C2CCC(=O)NC2=O)c2cccc(CCCOCCCC(CNC[C@H]3CC[C@H](n4cc(NC(=O)c5cnn6ccc(N7C[C@H]8C[C@@H]7CO8)nc56)c(C(F)F)n4)CC3)C(=O)O)c21 (some centres unmarked)	100 to 1000 nM
Cn1c(=O)n(C2CCC(=O)NC2=O)c2cccc(CCCCN3CCN(C[C@H]4CC[C@H](n5cc(NC(=O)c6cnn7ccc(N8C[C@H]9C[C@@H]8CO9)nc67)c(C(F)F)n5)CC4)CC3)c21 (some centres unmarked)	< 10 nM

Could you now consider this next molecule?
Quote DC50 reported for Cn1c(=O)n(C2CCC(=O)NC2=O)c2cccc(C#CCCCOCc3ccc(-n4cc(NC(=O)c5cnn6ccc(N7C[C@H]8C[C@@H]7CO8)nc56)c(C(F)F)n4)cc3)c21 (some centres unmarked) please. 100 to 1000 nM
